Protocol: Electrochemical properties (onset oxidation/reduction potentials, HOMO, LUMO, gap)
Format: physicochemical
Protocol Conditions: HOMO = −e(Eox + 4.32)
Description: The energy difference between HOMO and LUMO is also illustrated in FIG. 4. […] The compounds of formulae 1b-d have similar energy difference between HOMO and LUMO, meaning their potential energy levels are similar. Among the compounds of formulae 1a-d, it appears that the compound of formula 1a has the best potential energy suitable for being applied in organic photovoltaics; the compound of formula 1c is the second best.

>  <Compound>
Cc1cccc(C)c1C(=O)OC12c3c4c5c6c7c8c(c9c%10c1c1c%11c3c3c%12c4c4c6c6c7c7c%13c8c9c8c9c%10c1c1c%10c%11c3c3c%11c%12c4c4c6c6c7c7c%13c8c8c9c1c1c%10c3c3c%11c4c6c4c7c8c1c34)C52OC[Si](C)(C)c1ccccc1 (stereo not shown)

>  <HOMO>
−6.03 eV

$$$$
>  <Compound>
CCCC[Si](C)(C)OC12c3c4c5c6c7c8c(c9c%10c1c1c%11c3c3c%12c4c4c6c6c7c7c%13c8c9c8c9c%10c1c1c%10c%11c3c3c%11c%12c4c4c6c6c7c7c%13c8c8c9c1c1c%10c3c3c%11c4c6c4c7c8c1c34)C52OC(=O)c1c(C)cccc1C (stereo not shown)

>  <HOMO>
−6.12 eV

$$$$
>  <Compound>
Cc1cccc(C)c1C(=O)OC12c3c4c5c6c7c8c(c9c%10c1c1c%11c3c3c%12c4c4c6c6c7c7c%13c8c9c8c9c%10c1c1c%10c%11c3c3c%11c%12c4c4c6c6c7c7c%13c8c8c9c1c1c%10c3c3c%11c4c6c4c7c8c1c34)C52O[Si](C)(C)C(C)(C)C (stereo not shown)

>  <HOMO>
−6.06 eV

$$$$
>  <Compound>
Cc1cccc(C)c1C(=O)OC12c3c4c5c6c7c8c(c9c%10c1c1c%11c3c3c%12c4c4c6c6c7c7c%13c8c9c8c9c%10c1c1c%10c%11c3c3c%11c%12c4c4c6c6c7c7c%13c8c8c9c1c1c%10c3c3c%11c4c6c4c7c8c1c34)C52O[Si](C)(C)c1ccccc1 (stereo not shown)

>  <HOMO>
−6.08 eV

$$$$

All figures here come from patent US20160039676A1.
